Target: Dual specificity mitogen-activated protein kinase kinase 6 (Homo sapiens)
Sequence (P52564 whole entry): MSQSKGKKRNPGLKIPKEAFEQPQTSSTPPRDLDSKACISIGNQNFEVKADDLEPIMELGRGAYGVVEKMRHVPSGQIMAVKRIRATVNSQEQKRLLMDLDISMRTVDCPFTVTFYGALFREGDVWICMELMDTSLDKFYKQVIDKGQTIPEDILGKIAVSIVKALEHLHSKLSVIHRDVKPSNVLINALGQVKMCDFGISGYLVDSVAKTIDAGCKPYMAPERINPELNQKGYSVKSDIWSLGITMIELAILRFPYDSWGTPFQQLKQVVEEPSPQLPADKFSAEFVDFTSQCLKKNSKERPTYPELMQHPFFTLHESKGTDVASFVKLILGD
Experiment: MKK6 [MAP2K6(M2K6LGF1)] Takeda global kinase panel
experimental endpoint: pIC50
Formally, pIC50 is defined as -log10 of the concentration c, with c in mol/L.

compound	pIC50
CN1C(=O)[C@@H](N2CCc3cn(Cc4ccccc4)nc3C2=O)COc2ccccc21 [TP-030-1]	6.00

Provide the documented pIC50 with Dual specificity mitogen-activated protein kinase kinase 6 (Homo sapiens) as the system for CN1C(=O)[C@@H](N2CCc3cn(CC4CCS(=O)(=O)CC4)nc3C2=O)COc2ccccc21 [TP-030n] 6.00
